# System: Escherichia coli JM109
MEASUREMENT KIND: MIC (µM)
# value in µM; strip the unit string

Please look up its MIC: CC[C@H](C)[C@H](NC(=O)[C@H](C)NC(=O)[C@H](CC(C)C)NC(=O)[C@H](CS)NC(=O)[C@H](Cc1cnc[nH]1)NC(=O)[C@H](C)NC(=O)[C@H](C)NC(=O)[C@H](CS)NC(=O)[C@@H](N)CC(C)C)C(=O)N[C@@H](CCCN=C(N)N)C(=O)N[C@@H](CCCN=C(N)N)C(=O)N[C@@H](CCCN=C(N)N)C(N)=O [LCAAHCLAIRRR] 17.4

---

# Tested on: Klebsiella pneumoniae ATCC 13883
Mark satisfied only for MIC values smaller than 20 µM; exact matches and larger values are not satisfied.

Observe how each entry below is paired with its result.
CC[C@H](C)[C@H](NC(=O)[C@@H](NC(=O)[C@H](CO)NC(=O)[C@H](C)NC(=O)[C@@H](NC(=O)[C@H](CCCCN)NC(=O)[C@H](CCCCN)NC(=O)[C@@H](NC(=O)[C@@H](NC(=O)[C@H](CC(=O)O)NC(=O)[C@H](Cc1ccccc1)NC(=O)[C@H](CC(C)C)NC(=O)CNC(=O)[C@H](Cc1cnc[nH]1)NC(=O)CNC(=O)CN)C(C)C)[C@@H](C)CC)C(C)C)C(C)C)C(=O)NCC(=O)NCC(=O)N[C@@H](CC(C)C)C(N)=O [GGHGLFDVIKKVASVIGGL]: not satisfied
CC[C@H](C)[C@H](NC(=O)CNC(=O)[C@H](CCCCN)NC(=O)[C@H](C)NC(=O)[C@@H](N)Cc1ccccc1)C(=O)N[C@@H](C)C(=O)NCC(=O)N[C@@H](CCSC)C(=O)N[C@@H](C)C(=O)NCC(=O)N[C@@H](CCCCN)C(=O)N[C@@H](CC(C)C)C(=O)N[C@@H](Cc1ccccc1)C(N)=O [FAKGIAGMAGKLF]: not satisfied

API: query returns whether the compound falls strictly under 20 µM in MIC. Query: CC[C@H](C)[C@H](NC(=O)[C@@H](N)CCCN=C(N)N)C(=O)N[C@@H](CCCCN)C(=O)N[C@H](C(=O)N[C@H](C(=O)N[C@H](C(=O)N[C@@H](CO)C(=O)N[C@@H](Cc1ccccc1)C(=O)N[C@@H](CC(=O)O)C(=O)N[C@@H](CC(C)C)C(=O)N1CCC[C@H]1C(=O)N[C@@H](C)C(=O)N[C@@H](CC(C)C)C(=O)N[C@@H](CCCN=C(N)N)C(=O)N[C@@H](Cc1c[nH]c2ccccc12)C(=O)N[C@@H](CC(C)C)C(=O)N[C@@H](CCCCN)C(=O)N[C@@H](CC(C)C)C(=O)O)[C@@H](C)O)C(C)C)[C@@H](C)O [RIKTVTSFDLPALRWLKL] not satisfied

CC(C)C[C@H](NC(=O)[C@H](CC(C)C)NC(=O)[C@H](CCCCN)NC(=O)CNC(=O)[C@H](CC(C)C)NC(=O)[C@H](CO)NC(=O)[C@H](CO)NC(=O)[C@H](CC(C)C)NC(=O)CN)C(N)=O [GLSSLGKLL] , same question. not satisfied

CC(C)C[C@H](NC(=O)[C@H](CC(C)C)NC(=O)[C@H](CCCCN)NC(=O)CNC(=O)[C@H](CC(C)C)NC(=O)[C@H](CO)NC(=O)[C@H](CO)NC(=O)[C@H](CC(C)C)NC(=O)[C@H](CC(C)C)NC(=O)CN)C(N)=O [GLLSSLGKLL] , same question. not satisfied

CC(C)C[C@H](NC(=O)[C@H](CCCN=C(N)N)NC(=O)[C@H](CCCCN)NC(=O)[C@@H](N)Cc1c[nH]c2ccccc12)C(=O)N[C@H](C(=O)N[C@@H](C)C(=O)N[C@@H](C)C(=O)N[C@@H](CO)C(=O)N[C@@H](C)C(=O)N[C@@H](CCCCN)C(=O)N[C@@H](CCCCN)C(=O)N[C@@H](CCCCN)C(N)=O)C(C)C [WKRLVAASAKKK] , same question. satisfied

CC[C@H](C)[C@@H]1NC(=O)CNC(=O)[C@H](CCCN=C(N)N)NC(=O)[C@H](Cc2ccc(O)cc2)NC(=O)[C@@H](NC(=O)[C@@H](NC(=O)[C@H](CCCN=C(N)N)NC(=O)[C@H](Cc2ccccc2)NC(=O)[C@H](C)NC(=O)[C@H](Cc2c[nH]c3ccccc23)NC(=O)[C@@H](N)CCCCN)C(C)C)CSSC[C@@H](C(=O)N[C@@H](Cc2ccc(O)cc2)C(=O)N[C@@H](CCCN=C(N)N)C(=O)N[C@@H](CCCN=C(N)N)C(=O)N[C@@H](CO)C(=O)N[C@@H](CCCN=C(N)N)C(=O)O)NC1=O [KWAFRVCYRGICYRRSR] , same question. satisfied

CC(C)C[C@H](NC(=O)[C@H](CC(C)C)NC(=O)[C@H](CCCN=C(N)N)NC(=O)[C@H](CCCN=C(N)N)NC(=O)[C@H](C)NC(=O)[C@H](Cc1c[nH]c2ccccc12)NC(=O)CNC(=O)[C@H](CCCN=C(N)N)NC(=O)[C@@H](N)CCCN=C(N)N)C(=O)N[C@@H](CCCN=C(N)N)C(=O)N[C@@H](C)C(=O)N[C@@H](Cc1ccccc1)C(=O)N[C@@H](C)C(=O)N[C@@H](Cc1ccccc1)C(=O)NCC(=O)N[C@@H](CCCN=C(N)N)C(=O)N[C@@H](CCCN=C(N)N)C(N)=O [RRGWARRLLRAFAFGRR] , same question. not satisfied

CC(C)C[C@H](NC(=O)[C@H](CC(C)C)NC(=O)[C@H](CCCCN)NC(=O)[C@H](CC(C)C)NC(=O)[C@H](CCCCN)NC(=O)[C@H](CC(C)C)NC(=O)[C@H](CO)NC(=O)[C@H](CC(C)C)NC(=O)[C@H](CC(C)C)NC(=O)[C@H](CC(C)C)NC(=O)[C@H](CO)NC(=O)[C@H](CC(C)C)NC(=O)CN)C(N)=O [GLSLLLSLKLKLL] , same question. not satisfied

CC[C@H](C)[C@H](NC(=O)[C@H](CCCCN)NC(=O)CNC(=O)[C@H](C)NC(=O)[C@H](CCCCN)NC(=O)CNC(=O)[C@H](C)NC(=O)[C@@H](NC(=O)[C@H](CCCCN)NC(=O)[C@H](C)NC(=O)[C@@H](NC(=O)[C@H](CCCCN)NC(=O)CNC(=O)[C@H](C)NC(=O)[C@H](CCCCN)NC(=O)CNC(=O)[C@H](C)NC(=O)[C@@H](NC(=O)[C@@H](N)CCCCN)[C@@H](C)CC)[C@@H](C)CC)[C@@H](C)CC)C(=O)N[C@@H](C)C(N)=O [KIAGKAGKIAKIAGKAGKIA] , same question. not satisfied

CC[C@H](C)[C@H](N)C(=O)N[C@@H](Cc1c[nH]c2ccccc12)C(=O)N[C@@H](Cc1c[nH]c2ccccc12)C(=O)N[C@@H](Cc1c[nH]c2ccccc12)C(=O)N[C@@H](Cc1c[nH]c2ccccc12)C(=O)N[C@@H](CC(C)C)C(=O)N[C@@H](CCCN=C(N)N)C(=O)N[C@@H](CCCCN)C(N)=O [IWWWWLRK] , same question. satisfied

---

# Test system: Staphylococcus epidermidis
# MEASUREMENT PROTOCOL: ≥ marks a high value that may be exact or a test limit, other limits are often not marked, values filed in µg/mL are converted to µM
MEASUREMENT KIND: MIC (µM)
# value in µM; strip the unit string

Please review the entries below; each comes with its answer.
CC[C@H](C)[C@H](NC(=O)[C@@H](NC(=O)[C@H](Cc1c[nH]c2ccccc12)NC(=O)[C@@H](NC(=O)[C@@H](N)CCCN=C(N)N)[C@@H](C)CC)C(C)C)C(=O)N[C@@H](CCCN=C(N)N)C(=O)N[C@@H](Cc1c[nH]c2ccccc12)C(=O)N[C@@H](CCCN=C(N)N)C(N)=O: 3.38
CC(C)C[C@H](NC(=O)[C@H](C)NC(=O)CNC(=O)[C@H](CC(C)C)NC(=O)[C@@H](N)Cc1ccccc1)C(=O)N[C@@H](Cc1ccccc1)C(=O)N[C@@H](CCCCN)C(=O)N[C@@H](Cc1c[nH]c2ccccc12)C(=O)N[C@@H](C)C(=O)N[C@@H](CO)C(=O)N[C@@H](CCCCN)C(=O)O: 19.7
CC[C@H](C)[C@H](NC(=O)[C@@H]1CCCN1C(=O)[C@H](CC(C)C)NC(=O)[C@@H](N)CC(C)C)C(=O)N[C@H](C(=O)N[C@@H](C)C(=O)N[C@@H](CC(N)=O)C(=O)N[C@@H](CC(C)C)C(=O)N[C@@H](CC(C)C)C(=O)N[C@@H](CCCCN)C(=O)N[C@@H](CO)C(=O)N[C@@H](CC(C)C)C(=O)N[C@@H](CC(C)C)C(=O)O)C(C)C: 7.11

Now look at this one.
Please look up its MIC: "CC[C@H](C)[C@H](NC(=O)[C@H](CCCCN)NC(=O)[C@H](CCC(N)=O)NC(=O)[C@H](Cc1c[nH]c2ccccc12)NC(=O)[C@@H](NC(=O)[C@H](CCCCN)NC(=O)[C@@H](N)CCCCN)[C@@H](C)CC)C(=O)N[C@@H](CCCCN)C(=O)N[C@@H](CC(N)=O)C(=O)N[C@@H](Cc1ccccc1)C(=O)N[C@@H](Cc1ccccc1)C(=O)N[C@@H](CCCN=C(N)N)C(=O)N[C@@H](CCCCN)C(=O)N[C@@H](CC(C)C)C(=O)O" 12.5
